Reference source for all entries: the nanobody polyreactivity screen of Harvey et al. (2022)

Assay: yeast display, Sf9 membrane polyspecificity reagent, FACS + sequencing; frameworks hold sequencing errors
assay-readout: polyreactivity (PSR sort gate)

Here is how some sequences turned out for polyreactivity (PSR sort gate).
QVQLVESGGGLVQAGGSLRLSCAASGSTFPSYAMGWYRPAPGKERELVAAINSGGGTNYADSVKGRFTISRDNAKNTVYLQMNSLKPEDTAVYYCAKSRYDYTKTEGGYWGQGTQVTVSS = low polyreactivity
QVQLVESGGGLVQAGGSLRLSCAASGSTIYFYAMGWYRQAPGKERELVAAITRSGSTYYADSVKGRFTISRDNAKNTVYLQLNSLKPEDTAVYYCNADQYYGCRYVYLRHYNYWGQGTQVTVSS = high polyreactivity
QVQLVESGGGLVQAGGSLRLSCAASGSIFYGYAMGWYRQAPGKERELVAAITSGGRTYYADSVKGRFTISRDNAKNTVYLQMNSLKPEDTAVYYCNKLNYWSVRYEYWGQGTQVTVSS = high polyreactivity
QVQLVESGGGLVEEGGSLRLSCAASGSIFSANALGWYRQAPGKERELVACITGDGSTNYADSVKGRFTISRDNAKNTVYLQMNSLKPEDTAVYYCAADIGSWYDYWGQGTQVTVSS = low polyreactivity

For the next question, use this sequence.
Read off the recorded polyreactivity (PSR sort gate) for QVQLVESGGGLVQAGGSLRLSCAASGFTFGSNAMGWYRQAPGKERELVAAISYSGTRTYYADSVKGRFTISRDNAKNTVYLQMNRLKPEDTAVYYCAAGFRKTQFNVRYYYWGHGTQVTVSS
high polyreactivity

* * *

Assay: yeast display, Sf9 membrane polyspecificity reagent, FACS + sequencing; frameworks hold sequencing errors
assay-readout: polyreactivity (PSR sort gate)

QVQLVESGGGLVQAGGSLRLSCAASGRIFYGYAMGWYRQAPGKERELVAAISKSGTRTYYADSVKGRFTISRDNAKNTVYLQMNSLKPEDTAVFYCNARGYPYDTYNEYYYWGQGTQVTVSS = high polyreactivity
QVQLVESGGGLVQAGGSLRLSCAASGSIFPVYAMGWYRPAPGKERELVAAISWIGGGTYYADSVKGRFTISRDNAKNTVYLQKHSLKPEDTAVYDCAAVPYTSEYDYWGQGTEVTVSS = high polyreactivity

* * *

Assay: yeast display, Sf9 membrane polyspecificity reagent, FACS + sequencing; frameworks hold sequencing errors
assay-readout: polyreactivity (PSR sort gate)

Here is how some sequences turned out for polyreactivity (PSR sort gate).
QVQLVESGGGLVQAGGSLRLSCAASGSTLQSYAMGWYRQAPGKERELVAGIRISGGNTRYADSVKGRFTISRDNAKNTVYLQMNSLKPEDTAVYYCAALTGFYNLRPYGYWGQGTQVTVSS = high polyreactivity
QVQLVESVGGLVQAGGSLRLSCSASGSIFDYYAMGWYRQAPGKQRELVAAITSGGSTYYADSVKGRFTISRDNAKNTVYLQMNSLNPEDTAVYYCNATYYYWLSYDYWGQGTQVSVSS = low polyreactivity
QVQLVESGGGLVQAGGSLRLSCAASGSTFAGNGMGWYRQAPGKEGELVAGIDVTGGSTYYADSVKGRFTISRDNAKKTVDLQMNSLKPEDTAVYYCYARYVYHSSFAGFDYWGQGTQVTVSS = low polyreactivity
QVQLVESGGGLVQAGGSLRLSCAASGNIFDIYAMGWYRQAPGKERELVAAITSGVRTYYADSVKGLFTISRDNAKNTVYLQMNSVKPEDTAVYYCATPSPHVGLKWEYDYWGQGTQVTVSS = low polyreactivity
QVQLVESGGGLVQAGGSLRLSCAASGFISYYYAMGWYRQAPGKDWELVAVITSGGSTDYADSVKGRFTISRDHAKNTVYLQMNSLKPEDTAVYYCARDDPASHKRYWHDYWGQGTQVTVSS = low polyreactivity

Read off the recorded polyreactivity (PSR sort gate) for QVQLVESGGGLVQAGGSLRLSCAPSGRNFWYYGMVWYRPAPGRERELVAAISRSGGRTSYADSVKGRFTISRDNAKNTVYLQMNSLKPEDTAVYYCATDGYYRYGYWGQGTQVTVSS
high polyreactivity

Read off the recorded polyreactivity (PSR sort gate) for QVQLVESGGGLVQAGGSLRLSCAASGSIFHWYAMGWYRQAPGKERELVAAISYSGASTYYADSVKGRFTISRDNAKITVYLQMNSLKPDDTAVYYCAAKVTGKGYYWGQGTQVTVSS
high polyreactivity
